These measurements were taken from the supplement of paper PMC11061612.

Entries and their Bliss excess values follow.
- Tested on: DEL (T-Cell Non-Hodgkin's Lymphoma);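 further: after 72 h of two-drug dosing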
- METHOD_NOTES: Bliss excess, mean over the matrix (fraction); higher = more synergy

MOLECULE	Bliss excess
CC1(C)CCC(CN2CCN(c3ccc(C(=O)NS(=O)(=O)c4ccc(NCC5CCOCC5)c([N+](=O)[O-])c4)c(Oc4cnc5[nH]ccc5c4)c3)CC2)=C(c2ccc(Cl)cc2)C1 [Venetoclax] + C[C@@H]1COCCN1C2=NC(=NC(=C2)C3(CC3)[S@](=N)(=O)C)C4=C5C=CNC5=NC=C4 [AZD6738] (first compound max 1 µM, 7x7, partner max 10 µM)	0.01
CCN(CCO)CCCOc1ccc2c(Nc3cc(CC(=O)Nc4cccc(F)c4)[nH]n3)ncnc2c1 [AZD2811] + C=CCn1c(=O)c2cnc(Nc3ccc(N4CCN(C)CC4)cc3)nc2n1-c1cccc(C(C)(C)O)n1 [AZD1775] (first compound max 1 µM, partner max 1 µM)	0.0636
